- Tested on: HCC-2998 colon
- ASSAY REMARKS: NCI-60 one-dose screen, 48 h (100 = growth as untreated, 0 = no growth, -100 = all killed)
- ASSAY SETUP: 10 µM unless noted
Compounds without any hit were thinned out: in the full panel of roughly 83,000, 20% have a hit. Active and inactive are the calls of the source. The calls were made as follows: active = growth percent below 10; inactive = the rest.
EXPERIMENTAL ENDPOINT: growth

[in] growth lookup needed for O=[N+]([O-])c1cc(S(=O)(=O)OCC2CO2)ccc1Cl (stereo unspecified) , thanks.
[out] 107% (inactive)

[in] I am curious: what growth value has been reported for `O=C1Nc2cc(Cl)ccc2/C1=C/c1ccc(N2CCOCC2)s1` ?
[out] 114% (inactive)

[in] Please report the recorded growth for `Cc1cc(C)c2c(=O)[nH]c(SCC(=O)Nc3cccc(S(=O)(=O)N(C)C)c3)nc2n1` .
[out] 106% (inactive)

[in] What growth value was documented for this molecule, `Cc1ccc(C(=O)c2sc3nc4c(cc3c2N)CCCC4)c(C)c1` ?
[out] 39.6% (inactive)

[in] Please look up its growth: `NC(=O)c1ccc2c(c1)OCO2`
[out] 100% (inactive)

[in] Which growth value is on record for `O=P([O-])(O)OP(=O)([O-])O.[NH-][C@H]1CCCC[C@@H]1[NH-].[OH-].[OH-].[Pt+4]` ?
[out] 98.8% (inactive)

[in] Entry `COC(=O)CC/C(C)=N\Nc1ccc([N+](=O)[O-])cc1` has what growth?
[out] 66.1% (inactive)

[in] Value lookup for growth; key = `O=C(CNc1c(Cl)cccc1Cl)Nc1ccc(-c2nc3ccccc3s2)cc1`
[out] 35.6% (inactive)

[in] Look up growth: `CCSc1nnc(NC(=O)COc2ccc(Cl)cc2C)s1`
[out] 131% (inactive)

[in] Give its growth value. Item: `COc1ccc(C(=O)c2cc(OC)c(OC)c(OC)c2)cc1/C=C/C(=O)c1ccc(OC)c(OC)c1`
[out] 45.9% (inactive)

[in] Suppose we examine the molecule `Nc1nn2cc(-c3ccc(Cl)s3)nc2c2ccccc12` ; what growth value has been reported?
[out] 92.4% (inactive)

The measurements presented in this section are drawn from PubChem BioAssay (NCI).
